Measured Therapeutical index by item
System: mice
test method notes: Hexobarbital narcosis on mice
Format: in vivo
measurement setup: oral, Hexobarbital narcosis
result type: Therapeutical index

compound="CCOC(=O)CCC1(C)Nc2nc(N3CCOCC3)nn2C(=S)N(C)N1 (centres unmarked)" target_or_test_system=mice quantitative_readout=12.5
compound="CC1Nc2nc(N3CCOCC3)nn2C(=S)N(C)N1 (centres unmarked)" target_or_test_system=mice quantitative_readout=10.0
compound=COc1cc(C=NN(C)C(=S)n2nc(SC)nc2N)ccc1O target_or_test_system=mice quantitative_readout=5.1
compound=CSc1nc2n(n1)C(=S)N(C)NC1(CCCCC1)N2 target_or_test_system=mice quantitative_readout=10.0
compound=CN(N=Cc1ccc(OCC(N)=O)cc1)C(=S)n1nc(N2CCOCC2)nc1N target_or_test_system=mice quantitative_readout=9.1
compound=CN1NC2(CCCCCCCCCCC2)Nc2nc(N3CCOCC3)nn2C1=S target_or_test_system=mice quantitative_readout=48.8
compound=CN(N=Cc1c(Cl)cccc1Cl)C(=S)n1nc(N2CCOCC2)nc1N target_or_test_system=mice quantitative_readout=27.8
compound="CCCC(C)(COC(N)=O)COC(N)=O [Meprobamate, reference compound]" target_or_test_system=mice quantitative_readout=4.1
